Values from ChEMBL document CHEMBL5321275

Test: Clearance in ICR mouse at 5 mg/kg, iv measured upto 96 hrs by HPLC-MS/MS analysis
Format: ADME, organism-based
Details: in vivo
observable: clearance (mL/min/kg)
One number for each entry, in mL/min/kg.

Task: Quick one: clearance for CN1CCN(c2cc3c(cc2Nc2nnc(-c4ccc(C(F)(F)F)cc4)s2)nc(-c2ccc(F)cc2)n3C2CC2)CC1 ?
Output: 24.2

###

Test system: HEK-Blue IL-6
Test: Inhibition of IL-6/JAK/STAT3 signalling pathway in HEK-Blue IL-6 cells at 10 uM incubated for 16 hrs by QUANTI-blue assay relative to control
Format: cell-based
Details: Homo sapiens
Could you please report measured inhibition for the items listed next?
One number for each entry, in %.

The cases that follow already have their inhibition on record.
Task: Give inhibition (HEK-Blue IL-6) of the following compound: Fc1cc2c(cc1Nc1nnc(-c3cccc(C(F)(F)F)c3)s1)nc(-c1ccccc1)n2C1CC1
Output: 25.6

Task: Form entry - test system: HEK-Blue IL-6; read-out: inhibition; compound: Fc1cc2c(cc1Nc1nnc(-c3ccccc3F)s1)nc(-c1ccccc1F)n2C1CC1
Output: 63.6

Task: Please tell me: inhibition of O=[N+]([O-])c1ccc2c(c1)S(=O)(=O)C=C2 , system HEK-Blue IL-6?
Output: 107

Task: Provide value of inhibition for this record tested with HEK-Blue IL-6: CN1CCN(c2cc3c(cc2Nc2nnc(-c4ccccc4)s2)nc(-c2ccccc2F)n3C2CC2)CC1
Output: 63.3

Further cases:
Task: Record lookup: for HEK-Blue IL-6, what inhibition belongs to Fc1cccc(-c2nc3cc(Nc4nnc(-c5cccc(C(F)(F)F)c5)s4)c(F)cc3n2C2CC2)c1 ?
Output: 90
